assay_target: HPK1 (Homo sapiens (Human), UniProt Q92918)
Sequence (Q92918 whole entry, species assumed): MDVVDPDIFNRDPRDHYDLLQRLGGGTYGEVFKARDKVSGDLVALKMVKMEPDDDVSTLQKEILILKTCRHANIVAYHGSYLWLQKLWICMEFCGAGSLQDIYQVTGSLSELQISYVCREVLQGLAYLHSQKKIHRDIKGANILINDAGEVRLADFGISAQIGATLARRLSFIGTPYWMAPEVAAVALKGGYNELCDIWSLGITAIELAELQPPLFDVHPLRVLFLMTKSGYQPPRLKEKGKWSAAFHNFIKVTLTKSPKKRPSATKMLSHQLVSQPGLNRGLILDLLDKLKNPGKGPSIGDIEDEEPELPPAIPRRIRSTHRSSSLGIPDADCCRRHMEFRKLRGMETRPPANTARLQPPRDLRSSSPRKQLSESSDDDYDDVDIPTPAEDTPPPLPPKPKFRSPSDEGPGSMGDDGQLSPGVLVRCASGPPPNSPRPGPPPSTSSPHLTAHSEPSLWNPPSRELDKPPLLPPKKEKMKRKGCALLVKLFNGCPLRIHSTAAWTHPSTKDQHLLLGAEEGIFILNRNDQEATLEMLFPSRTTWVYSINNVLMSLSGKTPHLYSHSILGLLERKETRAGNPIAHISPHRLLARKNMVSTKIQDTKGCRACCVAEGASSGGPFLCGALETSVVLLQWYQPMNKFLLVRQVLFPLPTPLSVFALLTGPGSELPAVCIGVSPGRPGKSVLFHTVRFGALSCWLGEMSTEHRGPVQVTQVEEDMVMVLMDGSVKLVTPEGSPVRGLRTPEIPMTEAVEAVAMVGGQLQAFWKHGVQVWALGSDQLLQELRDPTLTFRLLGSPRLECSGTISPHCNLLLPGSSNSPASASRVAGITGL
experimental_details: HPK1 enzyme activity detection (1 mM ATP system), ADP-Glo with MBP substrate, Pharmacological Experiment 2
Assay type: biochemical
pIC50: −log10 of the molar value.
Overview of recorded pIC50 for various molecules
property_measured: pIC50

>>> quantitative_readout("O=C1NCc2c(-c3cnc4cc(F)c(Cl)cn34)ccc(Nc3ccc4c(n3)CCCC43CCOCC3)c21")
7.52
>>> quantitative_readout("CN(C)C1CC2(CCOCC2)c2ccc(Nc3ccc(-c4cnc5cc(C6CC6)ccn45)c4c3C(=O)NC4)nc21 (stereo not drawn)")
7.97
>>> quantitative_readout("Cc1cc(Nc2ccc(-c3cnc4ccccn34)c3c2C(=O)NC3)nc2c1C1(CCOCC1)C[C@H]2N(C)C")
8.82
>>> quantitative_readout("CN(C)[C@@H]1CC2(CCOCC2)c2ccc(Nc3ccc(-c4cnc5cc(OC(F)F)ccn45)c4c3C(=O)NC4)nc21 [Compound 158A]")
8.52
>>> quantitative_readout("Cc1ccn2c(-c3ccc(Nc4ccc5c(n4)C(N(C)C)CC54CCOCC4)c4c3CNC4=O)cnc2c1 (stereo not drawn)")
8.45
>>> quantitative_readout("O=C1NCc2c(-c3cnc4cc(OC(F)F)ccn34)ccc(Nc3ccc4c(n3)C(NC3CC3)CC43CCOCC3)c21 (stereo not drawn)")
7.86

---

assay_target: HPK1 (Homo sapiens (Human))
experimental_details: HPK1 enzyme activity detection (1 mM ATP system), ADP-Glo with MBP substrate, Pharmacological Experiment 2
Type: biochemical
pIC50: −log10 of the molar value.
Please note: 1 (yes) applies when pIC50 is 8 or greater, and 0 (no) applies otherwise.

>>> class_label("O=C1NCc2c(-c3cnc4cc(F)ccn34)ccc(Nc3ccc4c(n3)C(N3CCCC3)CC43CCOCC3)c21 (stereo not shown)")
"1 (yes)"
>>> class_label("CN(C)C1CCC2(CCOCC2)c2ccc(Nc3ccc(-c4cnc5cc(F)ccn45)c4c3C(=O)NC4)nc21 (stereo not shown)")
"1 (yes)"
>>> class_label("O=C1NCc2c(-c3cnc4cc(F)ccn34)ccc(Nc3ccc4c(n3)C(N3CCC(F)(F)C3)CC43CCOCC3)c21 (stereo not shown)")
"0 (no)"
>>> class_label("O=C1NCc2c(-c3cnc4cc(F)ccn34)ccc(Nc3ccc4c(n3)C(N3CC(F)C3)CC43CCOCC3)c21 (stereo not shown)")
"1 (yes)"
>>> class_label("N#Cc1ccn2c(-c3ccc(Nc4ccc5c(n4)C(N4CCCC4)CC54CCOCC4)c4c3CNC4=O)cnc2c1 (stereo not shown)")
"1 (yes)"
>>> class_label("O=C1NCc2c(-c3cnc4cc(F)ccn34)ccc(Nc3ccc4c(n3)C(N3CC5(COC5)C3)CC43CCOCC3)c21 (stereo not shown)")
"1 (yes)"

---

Test system: human peripheral blood mononuclear cells
experimental_details: Detection of IFN-γ secretion in human peripheral blood mononuclear cells (anti-CD3/CD28 beads, ELISA)
Assay type: cell-based
measurement_setup: IFN-γ secretion, human PBMC
property_measured: Maximum induction factor

>>> quantitative_readout("CN(C)[C@@H]1CC2(CCOCC2)c2ccc(Nc3ccc(-c4cnc5cc(OC(F)F)ccn45)c4c3C(=O)NC4)nc21 [Compound 158A]")
10.8
>>> quantitative_readout("O=C1NCc2c(-c3cnc4cc(F)ccn34)ccc(Nc3ccc4c(n3)C(NC3CC3)CC43CCOCC3)c21 (centres unmarked)")
4.9
>>> quantitative_readout("O=C1NCc2c(-c3cnc4cc(OC(F)F)ccn34)ccc(Nc3ccc4c(n3)CNCC43CCOCC3)c21")
26.8
>>> quantitative_readout("O=C1NCc2c(-c3cnc4cc(F)ccn34)ccc(Nc3ccc4c(n3)C(N3CC[C@@H](F)C3)CC43CCOCC3)c21 (some centres unmarked)")
16.6
>>> quantitative_readout("O=C1NCc2c(-c3cnc4cc(F)ccn34)ccc(Nc3ccc4c(n3)CCCC43CCC3)c21")
20.2
>>> quantitative_readout("O=C1NCc2c(-c3cnc4cc(F)ccn34)ccc(Nc3ccc4c(n3)C(NC3CCOC3)CC43CCOCC3)c21 (centres unmarked)")
8.8
>>> quantitative_readout("CN(C)[C@@H]1CC2(CCOCC2)c2ccc(Nc3ccc(-c4cnc5cc(F)ccn45)c4c3C(=O)NC4)nc21")
7.7
>>> quantitative_readout("CN(C)C1CC2(CCOC2)c2ccc(Nc3ccc(-c4cnc5cc(Cl)ccn45)c4c3C(=O)NC4)nc21 (centres unmarked)")
6.5
>>> quantitative_readout("CN(C)C1CC2(CCOC2)c2ccc(Nc3ccc(-c4cnc5cc(F)ccn45)c4c3C(=O)NC4)nc21 (centres unmarked)")
6.5
>>> quantitative_readout("CN(C)Cc1nc(Nc2ccc(-c3cnc4cc(F)ccn34)c3c2C(=O)NC3)ccc1C1CCOCC1 [Compound D1, reference compound]")
4.6
>>> quantitative_readout("Cc1ccn2c(-c3ccc(Nc4ccc5c(n4)CCCC54CCOCC4)c4c3CNC4=O)cnc2c1")
19.4

---

assay_target: UniProt Q92918
experimental_details: HPK1 enzyme activity detection (1 mM ATP system), ADP-Glo with MBP substrate, Pharmacological Experiment 2
Assay type: biochemical
pIC50: −log10 of the molar value.
Overview of recorded pIC50 for various compounds
property_measured: pIC50

>>> quantitative_readout("CN(C)C1CC2(CCOCC2)c2ccc(Nc3ccc(-c4cnn5cccnc45)c4c3C(=O)NC4)nc21 (stereo not drawn)")
8.54
>>> quantitative_readout("C#CCN1Cc2nc(Nc3ccc(-c4cnc5cc(F)ccn45)c4c3C(=O)NC4)ccc2C2(CCOCC2)C1 [Compound 155]")
6.61
>>> quantitative_readout("CN(C)C1CC2(CCOCC2)c2ccc(Nc3ccc(-c4cnc5cc(CO)ccn45)c4c3C(=O)NC4)nc21 (stereo not drawn)")
8.42
>>> quantitative_readout("C[C@@H]1CN(C2CC3(CCOCC3)c3ccc(Nc4ccc(-c5cnc6cc(F)ccn56)c5c4C(=O)NC5)nc32)C[C@H](C)O1 (stereo partly drawn)")
8.21
>>> quantitative_readout("CC1(C)CN(C2CC3(CCOCC3)c3ccc(Nc4ccc(-c5cnc6cc(F)ccn56)c5c4C(=O)NC5)nc32)CCO1 (stereo not drawn)")
7.14
>>> quantitative_readout("CC(C)N1Cc2nc(Nc3ccc(-c4cnc5cc(F)ccn45)c4c3C(=O)NC4)ccc2C2(CCOCC2)C1")
7.53
>>> quantitative_readout("CC(=O)N1CCN(C2CC3(CCOCC3)c3ccc(Nc4ccc(-c5cnc6cc(F)ccn56)c5c4C(=O)NC5)nc32)CC1 (stereo not drawn)")
7.12
>>> quantitative_readout("Cc1cc(Nc2ccc(-c3cnc4cc(F)ccn34)c3c2C(=O)NC3)nc2c1C1(CCOCC1)C[C@H]2N(C)C")
8.90
>>> quantitative_readout("CN(C)C1CC2(CCOCC2)c2ccc(Nc3ccc(-c4cnc5c(F)c(F)ccn45)c4c3C(=O)NC4)nc21 (stereo not drawn)")
8.37
>>> quantitative_readout("O=C1NCc2c(-c3cnc4cc(Cl)ccn34)ccc(Nc3ccc4c(n3)C(N3CCCC3)CC43CCOCC3)c21 (stereo not drawn)")
8.33
>>> quantitative_readout("CN(C)C1CC2(CCOCC2)c2ccc(Nc3ccc(-c4cnc5cc(N)ccn45)c4c3C(=O)NC4)nc21 (stereo not drawn)")
7.72
>>> quantitative_readout("O=C1NCc2c(-c3cnc4cc(OC(F)F)ccn34)ccc(Nc3ccc4c(n3)CNCC43CCOCC3)c21")
7.92
